- tested.system: NLRP3 inflammasome (Homo sapiens (Human), UniProt Q96P20)
- Sequence (Q96P20 whole entry): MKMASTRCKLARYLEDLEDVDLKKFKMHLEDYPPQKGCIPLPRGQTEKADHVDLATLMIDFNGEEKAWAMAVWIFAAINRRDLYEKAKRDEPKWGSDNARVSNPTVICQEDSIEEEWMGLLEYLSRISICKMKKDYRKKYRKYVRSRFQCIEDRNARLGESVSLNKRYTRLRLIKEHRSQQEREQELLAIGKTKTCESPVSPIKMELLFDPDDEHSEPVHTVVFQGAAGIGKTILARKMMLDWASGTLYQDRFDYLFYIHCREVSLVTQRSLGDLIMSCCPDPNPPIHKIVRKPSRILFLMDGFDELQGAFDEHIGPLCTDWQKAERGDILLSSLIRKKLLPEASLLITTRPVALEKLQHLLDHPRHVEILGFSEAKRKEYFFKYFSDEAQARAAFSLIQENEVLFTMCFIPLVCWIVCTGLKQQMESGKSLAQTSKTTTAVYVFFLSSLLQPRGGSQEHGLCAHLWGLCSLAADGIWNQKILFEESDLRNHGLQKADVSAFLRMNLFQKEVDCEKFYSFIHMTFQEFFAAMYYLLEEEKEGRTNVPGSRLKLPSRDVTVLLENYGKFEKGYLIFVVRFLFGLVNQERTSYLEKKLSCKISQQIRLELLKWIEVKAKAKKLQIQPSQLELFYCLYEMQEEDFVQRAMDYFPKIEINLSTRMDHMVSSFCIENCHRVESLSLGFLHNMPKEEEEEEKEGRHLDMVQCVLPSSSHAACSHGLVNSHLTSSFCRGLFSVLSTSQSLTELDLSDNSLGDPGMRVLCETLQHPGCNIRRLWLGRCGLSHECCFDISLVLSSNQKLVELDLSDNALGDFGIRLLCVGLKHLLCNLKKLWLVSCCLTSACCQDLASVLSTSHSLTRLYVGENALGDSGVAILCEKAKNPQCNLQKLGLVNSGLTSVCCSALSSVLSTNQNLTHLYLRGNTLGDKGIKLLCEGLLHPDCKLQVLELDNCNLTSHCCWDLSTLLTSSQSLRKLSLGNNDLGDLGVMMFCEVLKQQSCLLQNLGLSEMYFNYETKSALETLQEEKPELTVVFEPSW
- assay.protocol: Evaluation of NLRP3 inflammasome inhibitory activity (inhibition of IL-1β production in THP1-Null cells, LPS/Nigericin)
- condition.summary: inhibition of IL-1β production in THP1-Null cells
pIC50: −log10 of the molar value.
quantity: pIC50

Some molecules with recorded pIC50:
1. Cc1ccc(C(F)(F)F)nc1Nc1nc(C(=O)NS(=O)(=O)N2CCCOCC2)co1 [Example 2-088]; 6.92
2. Cc1ccc(C(F)(F)F)cc1Nc1nc(C(=O)NS(=O)(=O)N2CCC(=O)N(C)CC2)co1 [Example 2-093]; 7.23
3. Cc1ccc(C(F)(F)F)cc1Nc1nc(C(=O)NS(=O)(=O)N2CCCN(c3ncccn3)CC2)co1 [Example 2-183]; 7.82
4. Cc1ccc(C(F)(F)F)cc1Nc1nc(C(=O)NS(=O)(=O)N2CCCN(S(=O)(=O)N(C)C)CC2)co1 [Example 2-099]; 7.68

1. CCN(C)S(=O)(=O)N1CCCN(S(=O)(=O)NC(=O)c2coc(Nc3cc(C(F)(F)F)ccc3C)n2)CC1 [Example 2-129]
2. CC(C)n1nc2c(c1Nc1nc(C(=O)NS(=O)(=O)N(C)C)co1)CCC2 [Example 2-014]
query: Which one would you say has the larger pIC50 value: 1 , or 2 ? Write down the label attached to your selection.
result: 1
(1: 7.70, 2: 5.22)

====

- tested.system: NLRP3 inflammasome (Homo sapiens (Human), UniProt Q96P20)
- assay.protocol: Evaluation of NLRP3 inflammasome inhibitory activity (inhibition of IL-1β production in THP1-Null cells, LPS/Nigericin)
- condition.summary: inhibition of IL-1β production in THP1-Null cells
quantity: IC50 (µM)

A. CC(C)c1nn(C(C)C)cc1Nc1nc(C(=O)NS(=O)(=O)N(C)C)co1 [Example 2-089]
B. CCCS(=O)(=O)N1CCCN(S(=O)(=O)NC(=O)c2coc(Nc3cc(CC)ccc3C)n2)CC1 [Example 2-256]
query: Dear colleague, could you let me know whether A or B has the lower recorded IC50? Thanks. Write down the label attached to your selection.
result: B
(B: 0.015 µM, A: 1.2 µM)

====

- tested.system: NLRP3 inflammasome (Homo sapiens (Human))
- assay.protocol: Evaluation of NLRP3 inflammasome inhibitory activity (inhibition of IL-1β production in THP1-Null cells, LPS/Nigericin)
pIC50: −log10 of the molar value.
quantity: pIC50

1) CCCS(=O)(=O)N1CCN(S(=O)(=O)NC(=O)c2coc(Nc3cc(C)ccc3C)n2)CC(OC)C1 (racemic); 7.49

a. CS(=O)(=O)C1CCN(S(=O)(=O)NC(=O)c2coc(Nc3c4c(c(Cl)c5c3CCC5)CCC4)n2)C1 (racemic)
b. CCOC1COCCN(S(=O)(=O)NC(=O)c2coc(Nc3cc(C(C)C)ccc3C)n2)C1 (racemic)
c. CN(C)C1CCN(S(=O)(=O)NC(=O)c2coc(Nc3c4c(c(F)c5c3CCC5)CCC4)n2)C1 (racemic)
query: Put the compounds in ascending order of pIC50. Dear reader, please state the labels in the requested order.
result: a, c, b

====

- tested.system: NLRP3 inflammasome (Homo sapiens (Human), UniProt Q96P20)
- assay.protocol: Evaluation of NLRP3 inflammasome inhibitory activity (inhibition of IL-1β production in THP1-Null cells, LPS/Nigericin)
- condition.summary: inhibition of IL-1β production in THP1-Null cells
pIC50: −log10 of the molar value.
quantity: pIC50

1) COCC1CCN(S(=O)(=O)NC(=O)c2coc(Nc3cc(C)ccc3C(C)C)n2)CCO1 (stereo not shown) [Example 2-309]; 7.41

a. CCCS(=O)(=O)N1CCCN(S(=O)(=O)NC(=O)c2coc(Nc3cc(C)c(C)cc3C)n2)CC1 [Example 2-289]
b. CCS(=O)(=O)N1CCCN(S(=O)(=O)NC(=O)c2coc(Nc3cc(C(F)(F)F)ccc3C)n2)CC1 [Example 2-064]
query: Dear colleague, could you let me know whether a or b has the lower recorded pIC50? Thanks. Write down the label attached to your selection.
result: a
(a: 7.34, b: 7.59)

====

- tested.system: NLRP3 inflammasome (Homo sapiens (Human))
- assay.protocol: Evaluation of NLRP3 inflammasome inhibitory activity (inhibition of IL-1β production in THP1-Null cells, LPS/Nigericin)
pIC50: −log10 of the molar value.
quantity: pIC50

Some molecules with recorded pIC50:
1) CCCCS(=O)(=O)N1CCN(S(=O)(=O)NC(=O)c2coc(Nc3cc(C(F)(F)F)ccc3C)n2)CC(OC)C1 (racemic); 7.54
2) COC(C)c1ccc(C)c(Nc2nc(C(=O)NS(=O)(=O)N(C)C)co2)c1 (racemic); 6.24
3) COC1CN(S(=O)(=O)CCCF)CCN(S(=O)(=O)NC(=O)c2coc(Nc3cc(C(F)(F)F)ccc3C)n2)C1 (racemic); 7.44

A. CC(C)c1ccc(C(F)F)cc1Nc1nc(C(=O)NS(=O)(=O)N2CCCN(S(=O)(=O)C3CCOC3)CC2)co1 (racemic)
B. CCC1CN(S(=O)(=O)NC(=O)c2coc(Nc3cc(C(F)(F)F)ccc3C)n2)CCO1 (racemic)
C. CCCS(=O)(=O)C1CCCN(S(=O)(=O)NC(=O)c2coc(Nc3cc(C(F)(F)F)ccc3C)n2)CC1 (centres unmarked)
D. CCCCS(=O)(=O)N1CCN(S(=O)(=O)NC(=O)c2coc(Nc3cc(C(F)(F)F)ccc3C)n2)CC(F)C1 (racemic)
E. COC(=O)C1COCCN1S(=O)(=O)NC(=O)c1coc(Nc2c3c(c(Cl)c4c2CCC4)CCC3)n1 (racemic)
query: Put the molecules in ascending order of pIC50. Dear reader, please state the labels in the requested order.
result: E, A, B, D, C

====

- tested.system: UniProtKB Q96P20
- assay.protocol: Evaluation of NLRP3 inflammasome inhibitory activity (inhibition of IL-1β production in THP1-Null cells, LPS/Nigericin)
- condition.summary: inhibition of IL-1β production in THP1-Null cells
quantity: IC50 (µM)

Some compounds with recorded IC50:
1) CCCS(=O)(=O)N1CCCN(S(=O)(=O)NC(=O)c2coc(Nc3cc(CC)ccc3CC)n2)CC1; 0.018
2) Cc1ccc2c(c1Nc1nc(C(=O)NS(=O)(=O)N3CCCOCC3)cs1)CCC2; 0.12
3) CCCCS(=O)(=O)N1CCCN(S(=O)(=O)NC(=O)c2coc(Nc3cc(C(F)(F)F)ccc3C)n2)CC1; 0.01
4) Cc1ccc(C(F)(F)F)cc1Nc1nc(C(=O)NS(=O)(=O)N2CCCN(S(=O)(=O)CCC(F)(F)F)CC2)co1; 0.02
5) COc1ccc(C(F)(F)F)cc1Nc1nc(C(=O)NS(=O)(=O)N2CCCOCC2)co1; 0.13
6) CC(C)c1ccc(C(F)(F)F)nc1Nc1nc(C(=O)NS(=O)(=O)N2CCCOCC2)co1; 0.25
7) CCCS(=O)(=O)N1CCCN(S(=O)(=O)NC(=O)c2coc(Nc3cc(Br)ccc3C)n2)CC1; 0.034
8) CCCCS(=O)(=O)N1CCCN(S(=O)(=O)NC(=O)c2coc(Nc3nn(C(C)C)cc3C(C)C)n2)CC1; 0.047
9) CC(=O)NC1CCN(S(=O)(=O)NC(=O)c2coc(Nc3cc(C(F)(F)F)ccc3C)n2)CC1; 0.15
10) CCOCC1CCN(S(=O)(=O)NC(=O)c2coc(Nc3nn(C(C)C)cc3C)n2)CCO1 (stereo not shown); 0.078

I. Cc1cnc(C(F)(F)F)cc1Nc1nc(C(=O)NS(=O)(=O)N(C)C)co1
II. Cc1ccc(C2CC2)cc1Nc1nc(C(=O)NS(=O)(=O)N2CCCOCC2)co1
III. Cc1ccc(C(F)(F)F)cc1Nc1nc(C(=O)NS(=O)(=O)N2CCOCC2)cs1
IV. CC(C)c1cn(C(C)C)nc1Nc1nc(C(=O)NS(=O)(=O)N2CCCC2)co1
query: Given 4 compounds, produce a descending ranking by IC50. Dear reader, please state the labels in the requested order.
result: I, IV, II, III
(I: 11 µM, IV: 0.27 µM, II: 0.056 µM, III: 0.032 µM)

====

- tested.system: NLRP3 inflammasome (Homo sapiens (Human))
- assay.protocol: Evaluation of NLRP3 inflammasome inhibitory activity (inhibition of IL-1β production in THP1-Null cells, LPS/Nigericin)
- condition.summary: inhibition of IL-1β production in THP1-Null cells
pIC50: −log10 of the molar value.
quantity: pIC50

Some molecules with recorded pIC50:
1. COCC1CN(S(=O)(=O)NC(=O)c2coc(Nc3cc(C(F)(F)F)ccc3C)n2)CCO1 (centres unmarked) [Example 2-049]; 7.34
2. COC1COCCN(S(=O)(=O)NC(=O)c2coc(Nc3cc(C(F)(F)F)ccc3C)n2)C1 (single isomer, unassigned) [Example 2-219]; 7.54
3. Cc1ccc2c(c1Nc1nc(C(=O)NS(=O)(=O)N3CCCOCC3)co1)CCC2 [Example 2-097]; 6.82

I. Cc1ccc(C(C)C)cc1Nc1nc(C(=O)NS(=O)(=O)N2CCOCC2(C)C)co1 [Example 2-098]
II. Cc1ccc(C(F)(F)F)cc1Nc1nc(C(=O)NS(=O)(=O)N2CCCN(S(=O)(=O)C3CC3)CC2)co1 [Example 2-103]
III. COC(=O)N1CCCN(S(=O)(=O)NC(=O)c2coc(Nc3cc(C(F)(F)F)ccc3C)n2)CC1 [Example 2-101]
IV. Cc1ccc(C)c(Nc2nc(C(=O)NS(=O)(=O)N3CCCN(c4ncccn4)CC3)co2)c1 [Example 2-275]
V. CCCCC(=O)N1CCCN(S(=O)(=O)NC(=O)c2coc(Nc3cc(C(F)(F)F)ccc3C)n2)CC1 [Example 2-182]
query: Put the molecules in ascending order of pIC50. Dear reader, please state the labels in the requested order.
result: I, IV, III, II, V
